Each recorded value in this set is attributed to patent US11912691B2.

Below, each of the molecules is paired with its reported % of the Compound after 3 Months value.
assay: Chemical stability in a cosmetic formulation, accelerated aging test (45° C., 3 months); conditions: 0.1% m/m in cosmetic formulation; oven at 45° C.; 3 months; HPLC
Report the value in % with no unit label.

MOLECULE	RESULT UNITS	% of the Compound after 3 Months
CC(C)=CCC/C(C)=C/CC/C(C)=C/CC[C@]1(C)CCc2c(C)c(O)c(C)c(C)c2O1 [α-tocotrienol, reference compound]	%	53
Cc1c(C)c2c(c(C)c1O)CC[C@@](C)(CCC[C@H](C)CCC[C@H](C)CCCC(C)C)O2 [α-tocopherol, reference compound]	%	44
COc1cc(/C=C/C(=O)Oc2c(C)c(C)c3c(c2C)CCC(C)(CC/C=C(\C)CC/C=C(\C)CCC=C(C)C)O3)ccc1OC(=O)c1cccnc1 (stereo not drawn) [α-tocotrienyl ferulyl nicotinate]	%	0

Ask: Hello, please tell me recorded % of the Compound after 3 Months for this one: CC(C)=CCC/C(C)=C/CC/C(C)=C/CC[C@]1(C)CCc2cc(O)cc(C)c2O1 [δ-tocotrienol, reference compound]
Result: 57

Ask: Output % of the Compound after 3 Months of CC(C)=CCC/C(C)=C/CC/C(C)=C/CC[C@]1(C)CCc2cc(O)c(C)c(C)c2O1 [γ-tocotrienol, reference compound]
Result: 20
